- system-name: T1, RBFOX1 RRM RbFoxmut (Fox-RRM*) (Homo sapiens, UniProt Q9NWB1 109-208, R118D;E147R;N151S;E152T)
- T1 sequence: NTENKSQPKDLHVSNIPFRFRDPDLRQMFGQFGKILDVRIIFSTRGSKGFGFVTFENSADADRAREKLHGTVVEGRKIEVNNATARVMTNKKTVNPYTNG
- test-method-notes: EMSA; HiTS-Eq, 1 nM pool, 10 min; buffer printed only for the single-RNA assays: 10 mM Tris pH 7.5, 150 mM NaCl, 3.4 mM EDTA, 0.001% NP-40, 30 C
- experimental-parameters: tags: His6 N-terminal (pET28a); label: 5' 32P
Over roughly 16,000 sequences, “ka relative to ugcaugu” has its median near 0.096; the highest 2% begin near 0.35. Many of the other results were omitted from the sample, so the highest values are more common in it than they were.
observed-property: binding signal

- binder: "AAGCCUG (DNA:RNA) RNA: GGGAGACCGGAAUUCAGAUUGUCCAAGCCUGUUAAAUCCCGUCGUAGCCACCA DNA 1: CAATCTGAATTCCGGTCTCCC DNA 2: TGGTGGCTACGACGGGATT"
  reported-result: "0.0848 KA relative to UGCAUGU"

Now take the following binder into account.
### Prompt Which binding signal value is on record for AUGAAUC (DNA:RNA) RNA: GGGAGACCGGAAUUCAGAUUGUCCAUGAAUCUUAAAUCCCGUCGUAGCCACCA DNA 1: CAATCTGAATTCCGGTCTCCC DNA 2: TGGTGGCTACGACGGGATT ?
### Response 0.334 KA relative to UGCAUGU
